Measured target: H-2 Db (Mus musculus)
Protocol notes: biochemical
Format: binding, murine
Measurement context: Db
Readout type: IC50 (nM)

Smiles str: CSCC[C@H](NC(=O)[C@H](C)NC(=O)[C@H](C)NC(=O)[C@H](C)NC(=O)[C@H](C)NC(=O)[C@H](Cc1ccc(O)cc1)NC(=O)[C@H](C)NC(=O)[C@H](C)NC(=O)[C@H](C)NC(=O)[C@H](C)N)C(=O)O
Reading unit: nM
Rel: >
Readout number: 44000
//
Smiles str: CSCC[C@H](NC(=O)[C@H](C)NC(=O)[C@H](C)NC(=O)[C@H](C)NC(=O)[C@H](CC(N)=O)NC(=O)[C@H](C)NC(=O)[C@H](C)NC(=O)[C@H](C)NC(=O)[C@H](C)NC(=O)[C@H](C)NC(=O)[C@H](C)N)C(=O)O
Reading unit: nM
Rel: =
Readout number: 257
//
Smiles str: CC[C@H](C)[C@H](NC(=O)[C@@H](NC(=O)[C@@H](NC(=O)[C@H](Cc1ccccc1)NC(=O)[C@H](C)NC(=O)[C@H](CCCNC(=N)N)NC(=O)CNC(=O)[C@@H]1CCCN1C(=O)CNC(=O)[C@@H](N)CCCNC(=N)N)C(C)C)[C@@H](C)O)C(=O)O
Reading unit: nM
Rel: =
Readout number: 22000
//
Smiles str: CC[C@H](C)[C@H](NC(=O)[C@H](Cc1ccccc1)NC(=O)[C@H](CCC(N)=O)NC(=O)CNC(=O)[C@H](CC(N)=O)NC(=O)[C@H](CCC(N)=O)NC(=O)[C@@H]1CCCN1C(=O)[C@H](CCC(N)=O)NC(=O)[C@@H](N)Cc1ccccc1)C(=O)N[C@@H](Cc1c[nH]cn1)C(=O)N[C@@H](Cc1ccccc1)C(=O)N[C@@H](Cc1ccc(O)cc1)C(=O)O
Reading unit: nM
Rel: =
Readout number: 280
//
Smiles str: CC[C@H](C)[C@H](NC(=O)[C@H](CCC(=O)O)NC(=O)[C@@H]1CCCN1C(=O)[C@@H]1CCCN1C(=O)[C@@H](NC(=O)[C@H](CC(N)=O)NC(=O)[C@H](CO)NC(=O)[C@@H]1CCCN1C(=O)CNC(=O)[C@@H](N)CO)[C@@H](C)O)C(=O)O
Reading unit: nM
Rel: =
Readout number: 8.1
//
Smiles str: CSCC[C@H](NC(=O)[C@H](C)NC(=O)[C@H](C)NC(=O)[C@H](Cc1ccc(O)cc1)NC(=O)[C@H](C)NC(=O)[C@H](C)NC(=O)[C@H](C)NC(=O)[C@H](C)N)C(=O)O
Reading unit: nM
Rel: >
Readout number: 44000
//
Smiles str: CC(C)C[C@H](NC(=O)CNC(=O)[C@H](CCC(N)=O)NC(=O)[C@H](Cc1ccc(O)cc1)NC(=O)[C@@H](NC(=O)[C@H](Cc1ccc(O)cc1)NC(=O)CNC(=O)[C@@H](N)CCCNC(=N)N)C(C)C)C(=O)O
Reading unit: nM
Rel: >
Readout number: 44000

---

In this section we review reported IC50 values for a set of molecules.
Measured target: HLA-DR DRB1*0101 (DR1) (Homo sapiens, UniProt P01903+P01911, A100R/D57E/F55L/F60I/F76Y/I96L/L162R/M171V/P40L/Q125E/R42F/V115G/Y59C)
Protocol notes: biochemical
Format: binding
Measurement context: DRB1 *0101

Smiles str: CC[C@H](C)[C@H](NC(=O)CNC(=O)[C@H](Cc1ccc(O)cc1)NC(=O)[C@H](CC(C)C)NC(=O)[C@H](CO)NC(=O)[C@H](CC(C)C)NC(=O)[C@H](CC(C)C)NC(=O)[C@H](CO)NC(=O)[C@H](CC(C)C)NC(=O)[C@H](CCC(=O)O)NC(=O)[C@H](CO)NC(=O)[C@H](CC(C)C)NC(=O)[C@H](CCC(=O)O)NC(=O)[C@H](CCCNC(=N)N)NC(=O)[C@@H](N)CC(C)C)C(=O)O
Reading unit: nM
IC50: 655

Smiles str: CC[C@H](C)[C@H](NC(=O)CNC(=O)[C@H](CCCNC(=N)N)NC(=O)[C@H](CCCNC(=N)N)NC(=O)[C@H](Cc1ccc(O)cc1)NC(=O)[C@H](C)NC(=O)[C@H](Cc1ccc(O)cc1)NC(=O)[C@@H](N)CCC(=O)O)C(=O)N[C@@H](C)C(=O)N[C@@H](CCC(=O)O)C(=O)N[C@@H](C)C(=O)N[C@H](C(=O)NCC(=O)N[C@@H](CC(C)C)C(=O)N1CCC[C@H]1C(=O)O)C(C)C
Reading unit: nM
IC50: 5.1

Smiles str: CC(C)C[C@H](NC(=O)[C@H](CO)NC(=O)[C@H](CC(C)C)NC(=O)[C@H](CO)NC(=O)[C@H](C)NC(=O)[C@H](C)NC(=O)[C@H](CCCNC(=N)N)NC(=O)[C@H](C)NC(=O)[C@H](CC(C)C)NC(=O)[C@H](CC(C)C)NC(=O)[C@H](CC(C)C)NC(=O)[C@@H]1CCCN1C(=O)[C@H](C)N)C(=O)NCC(=O)N[C@@H](Cc1ccccc1)C(=O)O
Reading unit: nM
IC50: 8.4
